System: Acinetobacter baumannii strains
Assay: Antibiotic susceptibility test (CLSI disk diffusion test method, read per CLSI 2016)
Assay type: cell-based
Settings: host strain YMC14/01/R3129
Endpoint label: antibiotic susceptibility class

C[C@@H](O)[C@H]1C(=O)N2C(C(=O)O)=C(S[C@@H]3CN[C@H](C(=O)N(C)C)C3)[C@H](C)[C@H]12	R
NCC[C@H](O)C(=O)N[C@@H]1C[C@H](N)[C@@H](O[C@H]2O[C@H](CN)[C@@H](O)[C@H](O)[C@H]2O)[C@H](O)[C@H]1O[C@H]1O[C@H](CO)[C@@H](O)[C@H](N)[C@H]1O	R
CN(C)c1ccc(O)c2c1C[C@H]1C[C@H]3[C@H](N(C)C)C(O)=C(C(N)=O)C(=O)[C@@]3(O)C(O)=C1C2=O	S
C[C@H]1COc2c(N3CCN(C)CC3)c(F)cc3c(=O)c(C(=O)O)cn1c23	R
C[C@@H](O)[C@H]1C(=O)N2C(C(=O)O)=C(SCCN=CN)C[C@H]12	R

Turning to the following compound.
Report antibiotic susceptibility class, nothing else, for this compound: CN(C)c1cc(NC(=O)CNC(C)(C)C)c(O)c2c1C[C@H]1C[C@H]3[C@H](N(C)C)C(O)=C(C(N)=O)C(=O)[C@@]3(O)C(O)=C1C2=O
I

---

Tested on: Acinetobacter baumannii strains
Experiment: Antibiotic susceptibility test (CLSI disk diffusion test method, read per CLSI 2016)
Assay type: cell-based
Conditions: host strain YMC14/01/R3007
Endpoint label: antibiotic susceptibility class

CN(C)c1cc(NC(=O)CNC(C)(C)C)c(O)c2c1C[C@H]1C[C@H]3[C@H](N(C)C)C(O)=C(C(N)=O)C(=O)[C@@]3(O)C(O)=C1C2=O	S
NCC[C@H](O)C(=O)N[C@@H]1C[C@H](N)[C@@H](O[C@H]2O[C@H](CN)[C@@H](O)[C@H](O)[C@H]2O)[C@H](O)[C@H]1O[C@H]1O[C@H](CO)[C@@H](O)[C@H](N)[C@H]1O	R
CC(C)(O/N=C(\C(=O)N[C@@H]1C(=O)N2C(C(=O)[O-])=C(C[n+]3ccccc3)CS[C@H]12)c1csc(N)n1)C(=O)O	R

---

Test system: Acinetobacter baumannii strains
Assay: Antibiotic susceptibility test (CLSI disk diffusion test method, read per CLSI 2016)
Assay type: cell-based
Details: host strain YMC14/03/R217
Endpoint label: antibiotic susceptibility class

CCN1CCN(C(=O)N[C@@H](C(=O)N[C@@H]2C(=O)N3[C@@H]2SC(C)(C)[C@@H]3C(=O)O)c2ccccc2)C(=O)C1=O	R
C[C@@H](O)[C@H]1C(=O)N2C(C(=O)O)=C(SCCN=CN)C[C@H]12	R
CN(C)c1ccc(O)c2c1C[C@H]1C[C@H]3[C@H](N(C)C)C(O)=C(C(N)=O)C(=O)[C@@]3(O)C(O)=C1C2=O	S

---

Tested on: Acinetobacter baumannii strains
Experiment: Antibiotic susceptibility test (CLSI disk diffusion test method, read per CLSI 2016)
Type: cell-based
Conditions: host strain YMC14/08/R1169
Method: Strain identification was performed using a kit such as AT 32 GN system (bioMérieux, Marcy l'Etoile, France). […] In Table 2 below, S, I, and R are the results obtained by evaluating susceptibility to the antibacterial agents, in which ‘S’ means susceptible, ‘I’ means intermediate, and ‘R’ means resistant. Strain identification was performed using a kit such as ATB 32 GN system (bioMédrieux, Marcy l'Etoile, France). […]
Endpoint label: antibiotic susceptibility S/I/R

C[C@@H](O)[C@H]1C(=O)N2C(C(=O)O)=C(S[C@@H]3CN[C@H](C(=O)N(C)C)C3)[C@H](C)[C@H]12 [Meropenem, meropenem]	R
NCC[C@H](O)C(=O)N[C@@H]1C[C@H](N)[C@@H](O[C@H]2O[C@H](CN)[C@@H](O)[C@H](O)[C@H]2O)[C@H](O)[C@H]1O[C@H]1O[C@H](CO)[C@@H](O)[C@H](N)[C@H]1O [Amikacin, amikacin]	R
C[C@H]1COc2c(N3CCN(C)CC3)c(F)cc3c(=O)c(C(=O)O)cn1c23 [Levofloxacin, levofloxacin]	R
CCN1CCN(C(=O)N[C@@H](C(=O)N[C@@H]2C(=O)N3[C@@H]2SC(C)(C)[C@@H]3C(=O)O)c2ccccc2)C(=O)C1=O [Piperalillinc]	R
CO/N=C(\C(=O)N[C@@H]1C(=O)N2C(C(=O)O)=C(COC(C)=O)CS[C@H]12)c1csc(N)n1 [Cefotaxime, cefotaxime]	R

Proceed to the following item.
Hello, please tell me recorded antibiotic susceptibility S/I/R for this one: CN(C)c1ccc(O)c2c1C[C@H]1C[C@H]3[C@H](N(C)C)C(O)=C(C(N)=O)C(=O)[C@@]3(O)C(O)=C1C2=O [Minocycline, minocycline]
S
